# ASSAY_SYSTEM: equine FcRn (large alpha subunit p51) in complex with equine beta-2-microglobulin (equine) (UniProt F6XZ61)
# RUN_DESCRIPTION: SPR (Biacore), pH 6
pKd: −log10 of the molar value.
Parameter: pKd. Scope: all listed entries.
QUANTITY_MEASURED: pKd

[[record]]
binder = "equine IgG7 D312F mutant (antibody, part only; not given: Variable domains, not shown: another chain or arm of the molecule) constant: ASTTAPKVFPLASHSAATSGSTVALGCLVSSYFPEPVTVSWNSGALTSGVHTFPSVLQSSGLYSLSSMVTVPASSLKSQTYICNVAHPASSTKVDKKIVIKECGGCPTCPECLSVGPSVFIFPPKPKDVLMISRTPTVTCVVVDVGHDFPDVQFNWYVDGVETHTATTEPKQEQNNSTYRVVSILAIQHKFWLSGKEFKCKVNNQALPAPVQKTISKPTGQPREPQVYVLAPHRDELSKNKVSVTCLVKDFYPTDIDIEWKSNGQPEPETKYSTTPAQLDSDGSYFLYSKLTVETNRWQQGTTFTCAVMHEALHNHYTEKSVSKSPGK"
quantity_measured = "pKd"
observed_value = 8.07

[[record]]
binder = "equine IgG7 N434S mutant (antibody, part only; not given: variable domains, not shown: another chain or arm of the molecule) constant: ASTTAPKVFPLASHSAATSGSTVALGCLVSSYFPEPVTVSWNSGALTSGVHTFPSVLQSSGLYSLSSMVTVPASSLKSQTYICNVAHPASSTKVDKKIVIKECGGCPTCPECLSVGPSVFIFPPKPKDVLMISRTPTVTCVVVDVGHDFPDVQFNWYVDGVETHTATTEPKQEQNNSTYRVVSILAIQHKDWLSGKEFKCKVNNQALPAPVQKTISKPTGQPREPQVYVLAPHRDELSKNKVSVTCLVKDFYPTDIDIEWKSNGQPEPETKYSTTPAQLDSDGSYFLYSKLTVETNRWQQGTTFTCAVMHEALHSHYTEKSVSKSPGK"
quantity_measured = "pKd"
observed_value = 6.94

[[record]]
binder = "equine IgG7 A426Q mutant (antibody, part only; not given: variable domains, not shown: another chain or arm of the molecule) constant: ASTTAPKVFPLASHSAATSGSTVALGCLVSSYFPEPVTVSWNSGALTSGVHTFPSVLQSSGLYSLSSMVTVPASSLKSQTYICNVAHPASSTKVDKKIVIKECGGCPTCPECLSVGPSVFIFPPKPKDVLMISRTPTVTCVVVDVGHDFPDVQFNWYVDGVETHTATTEPKQEQNNSTYRVVSILAIQHKDWLSGKEFKCKVNNQALPAPVQKTISKPTGQPREPQVYVLAPHRDELSKNKVSVTCLVKDFYPTDIDIEWKSNGQPEPETKYSTTPAQLDSDGSYFLYSKLTVETNRWQQGTTFTCQVMHEALHNHYTEKSVSKSPGK"
quantity_measured = "pKd"
observed_value = 7.73

[[record]]
binder = "equine IgG7 A426W mutant (antibody, part only; not given: variable domains, not shown: another chain or arm of the molecule) constant: ASTTAPKVFPLASHSAATSGSTVALGCLVSSYFPEPVTVSWNSGALTSGVHTFPSVLQSSGLYSLSSMVTVPASSLKSQTYICNVAHPASSTKVDKKIVIKECGGCPTCPECLSVGPSVFIFPPKPKDVLMISRTPTVTCVVVDVGHDFPDVQFNWYVDGVETHTATTEPKQEQNNSTYRVVSILAIQHKDWLSGKEFKCKVNNQALPAPVQKTISKPTGQPREPQVYVLAPHRDELSKNKVSVTCLVKDFYPTDIDIEWKSNGQPEPETKYSTTPAQLDSDGSYFLYSKLTVETNRWQQGTTFTCWVMHEALHNHYTEKSVSKSPGK"
quantity_measured = "pKd"
observed_value = 7.62

[[record]]
binder = "equine IgG7 A426E mutant (antibody, part only; not given: variable domains, not shown: another chain or arm of the molecule) constant: ASTTAPKVFPLASHSAATSGSTVALGCLVSSYFPEPVTVSWNSGALTSGVHTFPSVLQSSGLYSLSSMVTVPASSLKSQTYICNVAHPASSTKVDKKIVIKECGGCPTCPECLSVGPSVFIFPPKPKDVLMISRTPTVTCVVVDVGHDFPDVQFNWYVDGVETHTATTEPKQEQNNSTYRVVSILAIQHKDWLSGKEFKCKVNNQALPAPVQKTISKPTGQPREPQVYVLAPHRDELSKNKVSVTCLVKDFYPTDIDIEWKSNGQPEPETKYSTTPAQLDSDGSYFLYSKLTVETNRWQQGTTFTCEVMHEALHNHYTEKSVSKSPGK"
quantity_measured = "pKd"
observed_value = 7.87

[[record]]
binder = "equine IgG7 K311T mutant (antibody, part only; not given: variable domains, not shown: another chain or arm of the molecule) constant: ASTTAPKVFPLASHSAATSGSTVALGCLVSSYFPEPVTVSWNSGALTSGVHTFPSVLQSSGLYSLSSMVTVPASSLKSQTYICNVAHPASSTKVDKKIVIKECGGCPTCPECLSVGPSVFIFPPKPKDVLMISRTPTVTCVVVDVGHDFPDVQFNWYVDGVETHTATTEPKQEQNNSTYRVVSILAIQHTDWLSGKEFKCKVNNQALPAPVQKTISKPTGQPREPQVYVLAPHRDELSKNKVSVTCLVKDFYPTDIDIEWKSNGQPEPETKYSTTPAQLDSDGSYFLYSKLTVETNRWQQGTTFTCAVMHEALHNHYTEKSVSKSPGK"
quantity_measured = "pKd"
observed_value = 7.71

[[record]]
binder = "equine IgG7 M428L mutant (antibody, part only; not given: Variable domains, not shown: another chain or arm of the molecule) constant: ASTTAPKVFPLASHSAATSGSTVALGCLVSSYFPEPVTVSWNSGALTSGVHTFPSVLQSSGLYSLSSMVTVPASSLKSQTYICNVAHPASSTKVDKKIVIKECGGCPTCPECLSVGPSVFIFPPKPKDVLMISRTPTVTCVVVDVGHDFPDVQFNWYVDGVETHTATTEPKQEQNNSTYRVVSILAIQHKDWLSGKEFKCKVNNQALPAPVQKTISKPTGQPREPQVYVLAPHRDELSKNKVSVTCLVKDFYPTDIDIEWKSNGQPEPETKYSTTPAQLDSDGSYFLYSKLTVETNRWQQGTTFTCAVLHEALHNHYTEKSVSKSPGK"
quantity_measured = "pKd"
observed_value = 7.98

[[record]]
binder = "equine IgG7 M428I mutant (antibody, part only; not given: variable domains, not shown: another chain or arm of the molecule) constant: ASTTAPKVFPLASHSAATSGSTVALGCLVSSYFPEPVTVSWNSGALTSGVHTFPSVLQSSGLYSLSSMVTVPASSLKSQTYICNVAHPASSTKVDKKIVIKECGGCPTCPECLSVGPSVFIFPPKPKDVLMISRTPTVTCVVVDVGHDFPDVQFNWYVDGVETHTATTEPKQEQNNSTYRVVSILAIQHKDWLSGKEFKCKVNNQALPAPVQKTISKPTGQPREPQVYVLAPHRDELSKNKVSVTCLVKDFYPTDIDIEWKSNGQPEPETKYSTTPAQLDSDGSYFLYSKLTVETNRWQQGTTFTCAVIHEALHNHYTEKSVSKSPGK"
quantity_measured = "pKd"
observed_value = 6.62

